These data points were gathered from patent US20260001871A1.

Molecular target: human MRGPRD (Homo sapiens, UniProt Q8TDS7)
Sequence (Q8TDS7 whole entry): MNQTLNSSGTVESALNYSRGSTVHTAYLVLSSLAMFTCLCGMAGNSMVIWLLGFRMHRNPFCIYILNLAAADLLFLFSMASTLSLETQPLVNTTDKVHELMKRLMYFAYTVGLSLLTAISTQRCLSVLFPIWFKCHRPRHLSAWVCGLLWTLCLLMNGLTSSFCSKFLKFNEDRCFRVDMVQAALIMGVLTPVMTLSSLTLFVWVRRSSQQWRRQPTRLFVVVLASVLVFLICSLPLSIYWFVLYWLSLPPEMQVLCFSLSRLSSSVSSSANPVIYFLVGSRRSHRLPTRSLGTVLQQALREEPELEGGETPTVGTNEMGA
Assay: MRGPRD antagonist activity, IP-One HTRF assay in CHO cells stably expressing human MRGPRD (versus 100 μM β-Alanine agonist)
Procedure: Chinese Hamster Ovary (CHO) cells stably expressing human MRGPRD (Eurofins, San Diego CA) were plated in a 384-well plate at 20,000 cells per well in 12 μL of Optimem (Fisher Scientific 11-058-021). Plates were kept in the incubator at 37° C. overnight. […] Assay plates were read on either a Molecular Devices SpectraMax iD5 plate reader or a BMG ClarioStar plate reader. The HTRF ratio was calculated form the raw data and graphed using GraphPad Prism to calculate IC50 values. […]
pIC50: −log10 of the molar value.
A collection of compounds and their measured pIC50

- COMPOUND: "N#Cc1ccc(-c2ccc(-n3nnc(C(=O)Nc4cc(F)nc(F)c4)c3C3CC3)cc2)cc1F [Compound 9-37]"
  VALUE_OBSERVED: "6.00 to 6.30"
- COMPOUND: "O=C(Nc1ccncc1)c1nnn(-c2ccc(-c3ccccc3)cc2)c1C1CC1 [Compound 2-3]"
  VALUE_OBSERVED: "6.00 to 6.30"
- COMPOUND: "CC(C)c1ccc(-c2ccc(-n3nnc(C(=O)Nc4ccncc4)c3C3CC3)cc2)cc1 [Compound 7-214]"
  VALUE_OBSERVED: "< 5.52"
- COMPOUND: "Cc1nn(C)c(C)c1-c1ccc(-n2nnc(C(=O)NC3C(C)(C)C3(C)C)c2C(C)C)cc1 [Compound 17-24]"
  VALUE_OBSERVED: "6.30 to 7.00"
- COMPOUND: "Cc1nn(C)c(C)c1-c1cccc(-n2nnc(C(=O)Nc3ccncc3)c2C2CC2)c1 [Compound 7-325]"
  VALUE_OBSERVED: "5.52 to 6.00"

Q. Record lookup: for human MRGPRD (Homo sapiens, UniProt Q8TDS7), what pIC50 belongs to Cc1cc(-n2nnc(C(=O)Nc3ccncc3)c2C2CC2)ccc1-c1ccc(C#N)cc1 [Compound 7-319] ?
A. 5.52 to 6.00

Q. Record lookup: for human MRGPRD (Homo sapiens, UniProt Q8TDS7), what pIC50 belongs to O=C(NCc1c[nH]cn1)c1nnn(-c2ccc(-c3ccccc3)cc2)c1C1CC1 [Compound 14-41] ?
A. 5.52 to 6.00

Q. Record lookup: for human MRGPRD (Homo sapiens, UniProt Q8TDS7), what pIC50 belongs to CCn1nc(C)cc1NC(=O)c1nnn(-c2ccc(-c3ccccc3)cc2)c1C1CC1 [Compound 14-12] ?
A. < 5.52

Q. Record lookup: for human MRGPRD (Homo sapiens, UniProt Q8TDS7), what pIC50 belongs to Cc1nn(C)c(C)c1-c1ccc(-n2nnc(C(=O)NCc3cccnc3)c2C(C)C)cc1 [Compound 17-22] ?
A. 6.30 to 7.00

Q. Record lookup: for human MRGPRD (Homo sapiens, UniProt Q8TDS7), what pIC50 belongs to O=C(Nc1ccncc1)c1nnn(-c2cccc(-c3ccc(F)cc3)c2)c1C1CC1 [Compound 7-311] ?
A. 5.52 to 6.00

Q. Record lookup: for human MRGPRD (Homo sapiens, UniProt Q8TDS7), what pIC50 belongs to CCn1nc(C)c(-c2ccc(-n3nnc(C(=O)NCc4cccnc4)c3C3CC3)cc2)c1C [Compound 9-25] ?
A. 6.30 to 7.00

====

Biological target: UniProt Q8TDS7
Assay: MRGPRD antagonist activity, IP-One HTRF assay in CHO cells stably expressing human MRGPRD (versus 100 μM β-Alanine agonist)
pIC50: −log10 of the molar value.
EXPERIMENTAL_READOUT: pIC50

Q. Record lookup: for UniProt Q8TDS7, what pIC50 belongs to N#CCc1ccccc1-c1ccc(-n2nnc(C(=O)Nc3ccncc3)c2C2CC2)cc1 [Compound 7-154] ?
A. 6.00 to 6.30

====

A collection of compounds and their measured pIC50
Biological target: human MRGPRD (Homo sapiens)
Assay: MRGPRD antagonist activity, IP-One HTRF assay in CHO cells stably expressing human MRGPRD (versus 100 μM β-Alanine agonist)
pIC50: −log10 of the molar value.

Worked cases, pIC50 given:
- COMPOUND_SMILES: "Cc1cc(NC(=O)c2nnn(-c3ccc(-c4ccccc4)cc3)c2C2CC2)ccc1F"
  SUBJECT_OF_TEST: "human MRGPRD (Homo sapiens)"
  pIC50: "5.52 to 6.00"
- COMPOUND_SMILES: "Cc1cc(NC(=O)c2nnn(-c3ccc(-c4ccc(C(F)F)nc4)cc3)c2C2CC2)ccn1"
  SUBJECT_OF_TEST: "human MRGPRD (Homo sapiens)"
  pIC50: "6.30 to 7.00"
- COMPOUND_SMILES: "O=C(Nc1c(F)cccc1F)c1nnn(-c2ccc(-c3ccccc3)cc2)c1C1CC1"
  SUBJECT_OF_TEST: "human MRGPRD (Homo sapiens)"
  pIC50: "5.52 to 6.00"

Q. Please report the recorded pIC50 for O=C(Nc1ccncc1)c1nnn(-c2cccc(-c3cccc(C(F)(F)F)c3)c2)c1C1CC1 .
A. 5.52 to 6.00

Q. Please report the recorded pIC50 for O=C(Nc1ccncc1)c1nnn(-c2cccc(-c3cccc(-c4ccccc4)c3)c2)c1C1CC1 .
A. < 5.52

Q. Please report the recorded pIC50 for N#Cc1ccc(-c2ccc(-n3nnc(C(=O)Nc4ccncc4)c3C3CC3)cc2)cc1F .
A. 6.30 to 7.00

Q. Please report the recorded pIC50 for Cc1cc(-c2ccc(-n3nnc(C(=O)Nc4ccncc4)c3C3CC3)cc2)n[nH]1 .
A. 5.52 to 6.00

Q. Please report the recorded pIC50 for Cn1c(CNC(=O)c2nnn(-c3ccc(-c4ccc(C#N)cc4)cc3)c2C2CC2)nc2ccccc21 .
A. 6.00 to 6.30

Q. Please report the recorded pIC50 for Cn1cnc(-c2ccc(-n3nnc(C(=O)Nc4ccncc4)c3C3CC3)cc2)c1 .
A. 6.00 to 6.30

Q. Please report the recorded pIC50 for COc1ccccc1-c1ccc(-n2nnc(C(=O)Nc3ccncc3)c2C2CC2)c(C)c1 .
A. 6.00 to 6.30

Q. Please report the recorded pIC50 for O=C(Nc1ccncc1)c1nnn(-c2ccc(-c3ccc(OC(F)(F)F)cc3)cc2)c1C1CC1 .
A. 5.52 to 6.00

Q. Please report the recorded pIC50 for O=C(NC1(c2cccnc2)CC1)c1nnn(-c2ccc(-c3ccccc3)cc2)c1C1CC1 .
A. 5.52 to 6.00

Q. Please report the recorded pIC50 for O=C(Nc1ccncc1)c1nnn(-c2ccc(-c3ccccc3CO)cc2)c1C1CC1 .
A. 6.00 to 6.30

Q. Please report the recorded pIC50 for Cc1cc(NC(=O)c2nnn(-c3cccc(-c4ccn(C5CC5)n4)c3)c2C2CC2)ccn1 .
A. 6.30 to 7.00

Q. Please report the recorded pIC50 for CCc1ccc(C2(NC(=O)c3nnn(-c4ccc(-c5ccc(C#N)c(F)c5)cc4)c3C3CC3)CC2)cn1 .
A. 6.30 to 7.00

Q. Please report the recorded pIC50 for CC(=O)c1ccc(-c2ccc(-n3nnc(C(=O)Nc4ccncc4)c3C3CC3)cc2C)cc1 .
A. 6.30 to 7.00

====

Target: human MRGPRD (Homo sapiens, UniProt Q8TDS7)
Experiment: MRGPRD antagonist activity, IP-One HTRF assay in CHO cells stably expressing human MRGPRD (versus 100 μM β-Alanine agonist)
pIC50: −log10 of the molar value.
EXPERIMENTAL_READOUT: pIC50

Worked cases, pIC50 given:
- COMPOUND_SMILES: "Cn1cc(C#N)c(-c2ccc(-n3nnc(C(=O)Nc4ccncc4)c3C3CC3)cc2)n1"
  VALUE_OBSERVED: "5.52 to 6.00"
- COMPOUND_SMILES: "N#Cc1ccc(-c2ccc(-n3nnc(C(=O)NC4(c5cccnc5)CC4)c3C3CC3)cc2)cc1"
  VALUE_OBSERVED: "6.00 to 6.30"
- COMPOUND_SMILES: "Cc1cc(NC(=O)c2nnn(-c3ccc(-c4ccc(CC#N)nc4)cc3)c2C2CC2)ccn1"
  VALUE_OBSERVED: "6.30 to 7.00"

Q. Please report the recorded pIC50 for CC(=O)c1ccc(-c2cccc(-n3nnc(C(=O)Nc4ccncc4)c3C3CC3)c2)c(F)c1C .
A. 6.00 to 6.30

====

A collection of compounds and their measured IC50
Biological target: human MRGPRD (Homo sapiens, UniProt Q8TDS7)
Experiment: MRGPRD antagonist activity, IP-One HTRF assay in CHO cells stably expressing human MRGPRD (versus 100 μM β-Alanine agonist)
Description: Chinese Hamster Ovary (CHO) cells stably expressing human MRGPRD (Eurofins, San Diego CA) were plated in a 384-well plate at 20,000 cells per well in 12 μL of Optimem (Fisher Scientific 11-058-021). Plates were kept in the incubator at 37° C. overnight. […] Assay plates were read on either a Molecular Devices SpectraMax iD5 plate reader or a BMG ClarioStar plate reader. The HTRF ratio was calculated form the raw data and graphed using GraphPad Prism to calculate IC50 values. […]

- COMPOUND_SMILES: "COCc1cccc(-c2ccc(-n3nnc(C(=O)Nc4ccncc4)c3C3CC3)cc2)c1"
  VALUE_OBSERVED: "1000 to 3000 nM"
- COMPOUND_SMILES: "O=C(Nc1ccncc1)c1nnn(-c2ccc(-c3ccnn3CC3CC3)cc2)c1C1CC1"
  VALUE_OBSERVED: "1000 to 3000 nM"
- COMPOUND_SMILES: "CCn1nc(C)c(-c2ccc(-n3nnc(C(=O)NCc4cncc(C)c4)c3C3CC3)cc2)c1C"
  VALUE_OBSERVED: "100 to 500 nM"

Q. Record lookup: for human MRGPRD (Homo sapiens, UniProt Q8TDS7), what IC50 belongs to Cc1ccccc1-c1cccc(-n2nnc(C(=O)Nc3ccncc3)c2C2CC2)c1 ?
A. 1000 to 3000 nM
